Please respond with reported Relative HLA MFI (100 uM) for every item in the list.
Test system: HLA class-I alleles A*0101, A*0201, A*0301, A*2402, B*0702, B*0801, B*1402, B*1501, B*2705, B*3501, B*3901, B*4001, B*4402, B*5201, B*5701, B*5801, B*8101 …
Assay type: cell-based, human
Details: HLA B*15 mono-allelic TAP-deficient 721.221 cells; peptide 100 uM; relative anti-HLA MFI
Simply state the number, no unit and no words.

// query # lookup: Relative HLA MFI (100 uM) of FQTKGLGISY [FY10 (Tat)]
// result 0.949

// query # lookup: Relative HLA MFI (100 uM) of VTDSQYALGI [VI10]
// result 0.3145

// query # lookup: Relative HLA MFI (100 uM) of VKVIEEKAF [VF9]
// result 0.4298

// query # lookup: Relative HLA MFI (100 uM) of GAFDLSFFL [GL9]
// result 0.1423

// query # lookup: Relative HLA MFI (100 uM) of LVGKLNWASQIY [LY12]
// result 0

// query # lookup: Relative HLA MFI (100 uM) of RIRQGLERA [RA9]
// result 0.7015

// query # lookup: Relative HLA MFI (100 uM) of TQGYFPDWQNY [TY11]
// result 1

// query # lookup: Relative HLA MFI (100 uM) of ILKEPVHGVY [IY10]
// result 0.9672

// query # lookup: Relative HLA MFI (100 uM) of ISERILSTY [IY9]
// result 0.9745

// query # lookup: Relative HLA MFI (100 uM) of RRGWEVLKY [RY9]
// result 0.5754
